Overview of recorded TGI for various compounds
- Test system: NCI/ADR-RES ovarian
- ASSAY_INFO: NCI tumour cell line growth inhibition, 48 h

>  <COMPOUND>
C#CCOC(=O)C(N)CCSC (configuration not stated)

>  <COMPARATOR>
>

>  <TGI (µM)>
100

$$$$
>  <COMPOUND>
CC(/C=N/NC1=NCCCN1)=N\NC1=NCCCN1

>  <COMPARATOR>
>

>  <TGI (µM)>
100

$$$$
>  <COMPOUND>
COc1ccc2c(c1)CC[C@@H]1[C@@H]2CC[C@]2(C)C=C(/C=C/C(=O)c3ccccc3)C[C@@H]12

>  <COMPARATOR>
=

>  <TGI (µM)>
35.1

$$$$
>  <COMPOUND>
C#CCN(Cc1nc2cc(C(F)(F)F)ccc2nc1-c1ccccc1)c1ccc(F)c(F)c1

>  <COMPARATOR>
>

>  <TGI (µM)>
100

$$$$
>  <COMPOUND>
C=CCCC(=O)N1C=CC(=O)[C@H](O)[C@@H]1/C=C/c1ccccc1

>  <COMPARATOR>
>

>  <TGI (µM)>
32.5

$$$$
>  <COMPOUND>
COc1ccc(-c2c(N)n[nH]c2-c2cc(OC)c(OC)c(OC)c2)cc1

>  <COMPARATOR>
=

>  <TGI (µM)>
2.22

$$$$
>  <COMPOUND>
O=C(Nc1cccc(C(F)(F)F)c1)c1cc(Br)cc(Br)c1O

>  <COMPARATOR>
=

>  <TGI (µM)>
6.78

$$$$
>  <COMPOUND>
COc1ccc(N2C(=O)C3CC4=CC(=O)C[C@H]4[C@H]32)cc1 (some centres not stated)

>  <COMPARATOR>
>

>  <TGI (µM)>
100

$$$$
>  <COMPOUND>
COc1cccc(-c2cc(=O)c3cc(Cl)cnc3[nH]2)c1

>  <COMPARATOR>
=

>  <TGI (µM)>
0.783

$$$$
>  <COMPOUND>
COc1cc(/C=N\O)nc(-c2ccccn2)c1

>  <COMPARATOR>
>

>  <TGI (µM)>
49.6

$$$$
>  <COMPOUND>
COc1ccc(NC(=O)/C=C(C)/C=C/C=C(C)\C=C\C2=C(C)CCCC2(C)C)cc1

>  <COMPARATOR>
>

>  <TGI (µM)>
100

$$$$
>  <COMPOUND>
CN1B(c2ccccc2)N(C)C(=O)N(C)C1=O

>  <COMPARATOR>
>

>  <TGI (µM)>
100

$$$$
>  <COMPOUND>
O=S(=O)(O)ONC1=NCCN1

>  <COMPARATOR>
>

>  <TGI (µM)>
100

$$$$
>  <COMPOUND>
ClCC#CCSc1ncnc2c1ncn2CC#CCCl

>  <COMPARATOR>
=

>  <TGI (µM)>
4.92

$$$$
>  <COMPOUND>
Cc1ccc2c(c1)C(=O)c1c-2n(CCCN=[N+]=[N-])c(=O)c2cc([N+](=O)[O-])ccc12

>  <COMPARATOR>
>

>  <TGI (µM)>
100

$$$$
>  <COMPOUND>
O=C(Nc1cc(-c2cccnc2)nc(NCCCN2CCOCC2)n1)c1cc(Br)cc(C(F)(F)F)c1

>  <COMPARATOR>
=

>  <TGI (µM)>
9.11

$$$$
>  <COMPOUND>
O=C(CC(=O)c1ccccc1)c1ccccc1

>  <COMPARATOR>
=

>  <TGI (µM)>
44

$$$$
